Please respond with reported IC50 for every item in the list.
target: LRRK2 wild-type (Homo sapiens (Human), UniProt Q5S007); test: LanthaScreen LRRK2 Biochemical Activity Assay; details: human recombinant LRRK2 (amino acids 970-2527) wild-type, ATP 57 μM, TR-FRET; read-out: IC50 (nM), inhibition of LRRK2 wild-type kinase activity
Sequence (Q5S007 970-2527): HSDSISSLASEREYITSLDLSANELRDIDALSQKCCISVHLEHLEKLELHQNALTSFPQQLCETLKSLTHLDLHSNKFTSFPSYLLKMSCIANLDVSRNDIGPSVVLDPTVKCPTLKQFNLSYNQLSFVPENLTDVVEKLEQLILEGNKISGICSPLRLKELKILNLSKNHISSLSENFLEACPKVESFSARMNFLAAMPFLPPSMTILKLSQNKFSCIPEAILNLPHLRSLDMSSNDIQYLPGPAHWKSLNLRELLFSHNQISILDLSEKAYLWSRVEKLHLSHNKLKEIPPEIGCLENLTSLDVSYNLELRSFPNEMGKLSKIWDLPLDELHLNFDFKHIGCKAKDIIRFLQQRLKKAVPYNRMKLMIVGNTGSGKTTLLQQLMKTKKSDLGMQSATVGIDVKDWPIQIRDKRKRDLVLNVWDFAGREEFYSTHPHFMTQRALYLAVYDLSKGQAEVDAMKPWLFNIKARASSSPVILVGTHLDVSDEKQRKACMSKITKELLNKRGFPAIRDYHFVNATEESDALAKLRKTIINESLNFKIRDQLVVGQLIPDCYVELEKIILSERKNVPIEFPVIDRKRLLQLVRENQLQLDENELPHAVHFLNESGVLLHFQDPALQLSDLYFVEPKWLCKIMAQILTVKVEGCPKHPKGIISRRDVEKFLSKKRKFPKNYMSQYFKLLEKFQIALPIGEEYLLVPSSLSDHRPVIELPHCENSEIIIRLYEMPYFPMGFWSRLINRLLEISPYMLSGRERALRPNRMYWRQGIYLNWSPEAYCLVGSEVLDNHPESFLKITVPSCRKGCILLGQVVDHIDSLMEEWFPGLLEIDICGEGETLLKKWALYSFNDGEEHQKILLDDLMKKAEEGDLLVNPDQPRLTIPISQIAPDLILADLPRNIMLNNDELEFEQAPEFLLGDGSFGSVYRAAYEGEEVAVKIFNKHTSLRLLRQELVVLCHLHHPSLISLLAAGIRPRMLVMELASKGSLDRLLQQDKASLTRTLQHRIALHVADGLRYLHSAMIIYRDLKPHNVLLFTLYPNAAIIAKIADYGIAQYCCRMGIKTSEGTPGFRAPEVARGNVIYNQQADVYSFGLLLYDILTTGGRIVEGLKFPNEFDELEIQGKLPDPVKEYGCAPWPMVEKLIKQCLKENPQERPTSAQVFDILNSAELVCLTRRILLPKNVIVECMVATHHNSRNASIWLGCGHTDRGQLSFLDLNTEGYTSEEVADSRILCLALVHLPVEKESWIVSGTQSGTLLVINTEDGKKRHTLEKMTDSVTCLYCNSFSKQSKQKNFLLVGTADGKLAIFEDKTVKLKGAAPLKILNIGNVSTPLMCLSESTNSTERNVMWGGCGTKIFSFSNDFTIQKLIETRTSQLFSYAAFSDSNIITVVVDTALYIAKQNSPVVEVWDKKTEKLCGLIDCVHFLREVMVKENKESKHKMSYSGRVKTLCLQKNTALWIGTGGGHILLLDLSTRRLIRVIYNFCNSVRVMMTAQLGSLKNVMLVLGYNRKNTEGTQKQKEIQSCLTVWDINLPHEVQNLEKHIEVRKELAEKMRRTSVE
Counter-ions that a name gives are not always drawn.

COMPOUND: CNc1ccn2ncc(-c3cccc(C4CCCNC4)n3)c2c1 (stereo not shown)
IC50: ≤ 10 nM

Hey, can you go through the list below and give me IC50 for every item?
1. CNc1ccn2ncc(-c3cccc(N4CCNCC4)n3)c2c1
2. Clc1ccc(C2CCCNC2)nc1-c1cnn2ccccc12 (stereo not shown)
3. N#CCC(=O)Nc1ccn2ncc(-c3cccc(C4CCCNC4)n3)c2c1 (stereo not shown)
4. CS(=O)(=O)NCCC(=O)Nc1ccn2ncc(-c3cccc(C4CCCNC4)n3)c2c1 (stereo not shown)
5. O=C(COc1ccncc1)Nc1ccn2ncc(-c3cccc(C4CCCNC4)n3)c2c1 (stereo not shown)
6. C[C@@H]1CN(c2cccc(-c3cnn4ccc(Cl)cc34)n2)C[C@H](C)N1C
7. c1cc(-c2cnn3ccccc23)nc(N2CC3CC(C2)N3)c1
8. C[C@H]1CN(c2cccc(-c3cnn4ccccc34)n2)CCN1 [Example 70, formate]

Resp:
1. 11 to 100 nM
2. 101 to 400 nM
3. 11 to 100 nM
4. 11 to 100 nM
5. 11 to 100 nM
6. 11 to 100 nM
7. 101 to 400 nM
8. 11 to 100 nM

----------
target: LRRK2 wild-type (Homo sapiens (Human)); assay: LanthaScreen LRRK2 Biochemical Activity Assay; settings: human recombinant LRRK2 (amino acids 970-2527) wild-type, ATP 57 μM, TR-FRET; read-out: IC50 (nM), inhibition of LRRK2 wild-type kinase activity
Structures can show the parent of a compound that is named as a salt.
Exercise: for every item that follows, state its recorded IC50.

Please review the following examples before continuing.
COMPOUND: CCNc1ccn2ncc(-c3cccc(C4CCCNC4)n3)c2c1 (stereo not shown)
IC50: 11 to 100 nM
--
COMPOUND: Brc1ccn2ncc(-c3cccc(C4CCCNC4)n3)c2c1 (stereo not shown)
IC50: 11 to 100 nM
--
COMPOUND: CS(=O)(=O)NCCNC(=O)c1ccc2c(-c3cccc(C4CCCNC4)n3)cnn2c1 (stereo not shown)
IC50: 101 to 400 nM
--
COMPOUND: O=C(Cc1ccccn1)Nc1ccn2ncc(-c3cccc(C4CCCNC4)n3)c2c1 (stereo not shown)
IC50: 11 to 100 nM

I have 3 compounds here; please give me IC50 for each one.
1. c1cc(-c2cnn3ccccc23)nc(C2CCNCC2)c1
2. Clc1ccn2ncc(-c3cccc(N4CCNCC4)n3)c2c1
3. C[C@@H]1CN(c2cccc(-c3cnn4ccccc34)n2)CCN1 [Example 69, formate]

Resp:
1: 101 to 400 nM; 2: 11 to 100 nM; 3: 11 to 100 nM

----------
Exercise: state measured IC50 for each of the compounds provided.
biological target: LRRK2 wild-type (Homo sapiens (Human)); test: LanthaScreen LRRK2 Biochemical Activity Assay; conditions: human recombinant LRRK2 (amino acids 970-2527) wild-type, ATP 57 μM, TR-FRET; read-out: IC50 (nM), inhibition of LRRK2 wild-type kinase activity

COMPOUND: C[C@@H]1CN(c2cccc(-c3cnn4ccccc34)n2)C[C@@H](C)N1 [Example 50]
TEST READOUT: IC50
RESULT: 11 to 100 nM
//
COMPOUND: CS(=O)(=O)CC(=O)Nc1ccn2ncc(-c3cccc(C4CCCNC4)n3)c2c1 (stereo not drawn) [Example 67]
TEST READOUT: IC50
RESULT: 11 to 100 nM

Now look at this entry.
Req: What measured IC50 is associated with FC(F)(F)c1ccn2ncc(-c3cccc(C4CCCNC4)n3)c2c1 (stereo not drawn) [Example 10] on LRRK2 wild-type (Homo sapiens (Human))?
Resp: 11 to 100 nM
